target entity: Agonist Androgen Response Element (ARE), AR (gene 367)
procedure summary: OT_AR_ARELUC_AG_1440: Odyssey Thera (OT) 24-hour CHO-K1 Luciferase Assay for Agonist Androgen Response Element (ARE) (AID 2283379)
Results filed as inconclusive are left out. Activity calls are given as the source filed them. The calls were made as follows: active = hit-call score of the fitted dose curve at least 0.9, where 1 is the maximum; inconclusive = response in the unintended direction; inactive = score below 0.9.
result type: outcome

# smiles record, result type, reported
data = [
    ("COc1ccc(C(=O)c2ccccc2)c(O)c1", "outcome", "inactive"),
    ("COc1cc(O)c(C(=O)c2ccccc2)cc1S(=O)(=O)O", "outcome", "inactive"),
    ("CCC[Si](OC)(OC)OC", "outcome", "inactive"),
    ("CN(C)Cc1cc(CN(C)C)c(O)c(CN(C)C)c1", "outcome", "inactive"),
    ("Cc1c(C(=O)c2c[nH]n(C)c2=O)ccc(S(C)(=O)=O)c1C1=NOCC1", "outcome", "inactive"),
]

Recorded outcome for O=C(O)c1ccc2c(c1)C(=O)OC2=O , please?
inactive

Give the measured outcome of CC(=O)OCc1ccccc1 .
inactive
